Tested on: E. coli TESEC Mtb DapB
experiment_summary: growth (OD600 after 10 h); higher = more growth (less inhibition)
condition_details: arabinose induction (level): Low; compound 0.1 mM; raw OD600 reference: median of DMSO wells 0.227, cell-free background 0.041
Where a name gives a salt, the structure may show the parent alone.
growth below 0.2 gives f; growth at or above it gives t.

{"compound": "Oc1ccc(OCc2ccccc2)cc1", "group": "t"}
{"compound": "Cn1c(=O)c2c(ncn2CC(=O)O)n(C)c1=O", "group": "t"}
{"compound": "C[C@@H](O)[C@H]1C(=O)N2C(C(=O)O)=C(S[C@@H]3CN[C@H](C(=O)N(C)C)C3)[C@H](C)[C@H]12", "group": "f"}
{"compound": "C[C@]12C=CC(=O)C=C1CC[C@@H]1[C@@H]2[C@@H](O)C[C@@]2(C)[C@H]1CC[C@]2(O)C(=O)CO", "group": "t"}
{"compound": "CC(C)NCC(O)COc1ccc(CCOCC2CC2)cc1 (centres undefined) [Betaxolol hydrochloride]", "group": "t"}
{"compound": "Cc1c(N(C)C)c(=O)n(-c2ccccc2)n1C", "group": "t"}
{"compound": "COC(=O)[C@H](c1ccccc1Cl)N1CCc2sccc2C1", "group": "f"}
{"compound": "Cc1ccccc1OCC(O)CO (centres undefined)", "group": "t"}
{"compound": "c1ccc(-c2ccc(C(c3ccccc3)n3ccnc3)cc2)cc1 (centres undefined)", "group": "f"}

###

Tested on: E. coli TESEC Mtb Asd
experiment_summary: growth (OD600 after 10 h); higher = more growth (less inhibition)
condition_details: arabinose induction (level): Low; compound 0.1 mM; raw OD600 reference: median of DMSO wells 0.417, cell-free background 0.041
Counter-ions that a name gives are not always drawn.
growth below 0.3 gives False; growth at or above it gives True.

{"compound": "COc1cccc2c1C(=O)c1c(O)c3c(c(O)c1C2=O)C[C@@](O)(C(=O)CO)C[C@@H]3O[C@H]1C[C@H](N)[C@H](O)[C@H](C)O1 [Doxorubicin hydrochloride]", "group": "False"}
{"compound": "N[C@@H](Cc1ccc(O)c(O)c1)C(=O)O", "group": "True"}
{"compound": "CC1CNc2c(cccc2S(=O)(=O)N[C@@H](CCCNC(=N)N)C(=O)N2CC[C@@H](C)C[C@@H]2C(=O)O)C1 (stereo partly specified)", "group": "True"}
{"compound": "COCCCOc1ccnc(C[S+]([O-])c2nc3ccccc3[nH]2)c1C (stereo unspecified) [Rabeprazole Sodium salt]", "group": "True"}
{"compound": "COC(=O)[C@H](c1ccccc1Cl)N1CCc2sccc2C1", "group": "False"}
{"compound": "C[C@H](CCC(=O)O)[C@H]1CC[C@H]2[C@@H]3[C@@H](O)C[C@@H]4C[C@H](O)CC[C@]4(C)[C@H]3CC[C@]12C", "group": "True"}
{"compound": "COc1ccc(C(=O)NCc2cccnc2)cc1C(=O)NCc1cccnc1 [Picotamide monohydrate]", "group": "True"}
{"compound": "COc1ccc2[nH]c([S+]([O-])Cc3ncc(C)c(OC)c3C)nc2c1 (stereo unspecified)", "group": "True"}
{"compound": "CCN(CC)CC(=O)Nc1c(C)cccc1C [Lidocaine hydrochloride]", "group": "True"}
{"compound": "Nc1ccc(S(=O)(=O)Nc2ccccn2)cc1", "group": "True"}
{"compound": "Cc1ccc(-c2ncc(Cl)cc2-c2ccc(S(C)(=O)=O)cc2)cn1", "group": "False"}
{"compound": "Nc1nc(=O)c2c([nH]1)NC[C@@H](CNc1ccc(C(=O)N[C@@H](CCC(=O)O)C(=O)O)cc1)N2C=O [Folinic acid calcium salt]", "group": "True"}
{"compound": "Cc1ncc([N+](=O)[O-])n1CC(O)CCl (stereo unspecified)", "group": "True"}
{"compound": "CC(O)(P(=O)(O)O)P(=O)(O)O [Etidronic acid, disodium salt]", "group": "True"}
{"compound": "CN(CCCCCCCCCCN(C)C(=O)Oc1cccc([N+](C)(C)C)c1)C(=O)Oc1cccc([N+](C)(C)C)c1 [Demecarium bromide]", "group": "False"}
{"compound": "CCCCNC(=O)NS(=O)(=O)c1ccc(C)cc1 [Tolbutamide]", "group": "True"}
{"compound": "CN(Cc1ccc(C(C)(C)C)cc1)Cc1cccc2ccccc12 [Butenafine Hydrochloride]", "group": "False"}
{"compound": "CC(=O)O[C@]1(C(C)=O)CC[C@H]2[C@@H]3C=C(Cl)C4=CC(=O)[C@@H]5C[C@@H]5[C@]4(C)[C@H]3CC[C@@]21C [Cyproterone acetate]", "group": "False"}
{"compound": "COCCc1ccc(OCC(O)CNC(C)C)cc1 (racemic) [Metoprolol-(+,-) (+)-tartrate salt]", "group": "True"}
{"compound": "CN(C)/N=N/c1[nH]cnc1C(N)=O", "group": "True"}
{"compound": "CCCc1nc(C)c2c(=O)nc(-c3cc(S(=O)(=O)N4CCN(CC)CC4)ccc3OCC)[nH]n12", "group": "False"}
{"compound": "CCn1nc(C(=O)O)c(=O)c2cc3c(cc21)OCO3", "group": "False"}
{"compound": "CC(C)(C)NC[C@H](O)COc1nsnc1N1CCOCC1 [Timolol maleate salt]", "group": "True"}
{"compound": "C[C@]12CC[C@@H]3c4ccc(O)cc4CC[C@H]3[C@@H]1CCC2=O", "group": "True"}
{"compound": "C#C[C@]1(O)CC[C@H]2[C@@H]3CCC4=CC(=O)CC[C@@H]4[C@H]3CC[C@@]21CC [Norgestrel-(-)-D]", "group": "True"}
{"compound": "CCOC(=O)n1ccn(C)c1=S", "group": "False"}
{"compound": "COc1ccc2[nH]cc(CCNC(C)=O)c2c1", "group": "True"}
{"compound": "CCC(C)(CN(C)C)OC(=O)c1ccccc1 (stereo unspecified) [Amyleine hydrochloride]", "group": "True"}

###

Test system: E. coli TESEC Mtb Alr
experiment_summary: growth (OD600 after 10 h); higher = more growth (less inhibition)
condition_details: arabinose 1000 nM; compound 0.1 mM; raw OD600 reference: median of DMSO wells 0.294, cell-free background 0.041
Counter-ions that a name gives are not always drawn.
growth by entry:
measurement_name: growth

{"compound": "CN(C)CCN(Cc1ccc(Cl)cc1)c1ccccn1 [Chloropyramine hydrochloride]", "data_value": 0.245}
{"compound": "CC(=O)O[C@]1(C(C)=O)CC[C@H]2[C@@H]3C=C(Cl)C4=CC(=O)[C@@H]5C[C@@H]5[C@]4(C)[C@H]3CC[C@@]21C [Cyproterone acetate]", "data_value": 0.168}
{"compound": "OCCN1CCN(CCCN2c3ccccc3Sc3ccc(Cl)cc32)CC1", "data_value": 0.0411}
{"compound": "CN1CCN(CCCN2c3ccccc3Sc3ccc(C(F)(F)F)cc32)CC1 [Trifluoperazine dihydrochloride]", "data_value": 0.0398}
{"compound": "CCCNC(=O)NS(=O)(=O)c1ccc(Cl)cc1 [Chlorpropamide]", "data_value": 0.301}
{"compound": "CCC[C@H](N[C@@H](C)C(=O)N1[C@H](C(=O)O)C[C@@H]2CCCC[C@@H]21)C(=O)OCC", "data_value": 0.309}
{"compound": "CC(=O)NS(=O)(=O)c1ccc(N)cc1 [Sulfacetamide sodic hydrate]", "data_value": 0.313}
{"compound": "CCN(Cc1ccncc1)C(=O)C(CO)c1ccccc1 (stereo not drawn) [Tropicamide]", "data_value": 0.308}

###

System: E. coli TESEC Alr+ wild-type control
experiment_summary: growth (OD600 after 10 h); higher = more growth (less inhibition)
condition_details: compound 0.1 mM; raw OD600 reference: median of DMSO wells 0.49, cell-free background 0.052
Counter-ions that a name gives are not always drawn.
growth below 0.5 gives NO; growth at or above it gives YES.

{"compound": "Cc1ccc(S(=O)(=O)NC(=O)NN2CC3CCCC3C2)cc1 (centres undefined) [Gliclazide]", "group": "YES"}
{"compound": "Cc1c(Cl)cccc1Nc1ccccc1C(=O)O", "group": "NO"}
{"compound": "CN1CCC(=C2c3ccccc3C=Cc3ccccc32)CC1 [Cyproheptadine hydrochloride]", "group": "NO"}
{"compound": "Clc1ccc2c(c1)C(N1CCNCC1)=Nc1ccccc1O2", "group": "NO"}
{"compound": "CN1CCCC(n2nc(Cc3ccc(Cl)cc3)c3ccccc3c2=O)CC1 (centres undefined) [Azelastine HCl]", "group": "NO"}
{"compound": "CCn1cc(C(=O)O)c(=O)c2cc(F)c(N3CCNCC3)cc21", "group": "NO"}
{"compound": "C[C@]12CC[C@H]3C(=CCc4cc(O)ccc43)[C@@H]1CCC2=O", "group": "NO"}
{"compound": "COc1ccc(C(=O)CC(=O)c2ccc(C(C)(C)C)cc2)cc1", "group": "YES"}
{"compound": "CC(C)(C)NC(=O)[C@@H]1CN(Cc2cccnc2)CCN1C[C@@H](O)C[C@@H](Cc1ccccc1)C(=O)N[C@H]1c2ccccc2C[C@H]1O [Indinavir sulfate]", "group": "YES"}
{"compound": "NNc1nncc2ccccc12 [Hydralazine hydrochloride]", "group": "NO"}
{"compound": "O=P(O)(O)C(Cl)(Cl)P(=O)(O)O [Clodronate]", "group": "YES"}
{"compound": "COc1ccc2c(c1)N(C[C@H](C)CN(C)C)c1ccccc1S2 [Methotrimeprazine maleat salt]", "group": "NO"}
{"compound": "CCOC1O[C@H]([C@@H](COCc2ccccc2)OCc2ccccc2)[C@H](OCc2ccccc2)[C@H]1O (some centres undefined) [Tribenoside]", "group": "NO"}
{"compound": "CCCN(CCC)C(=O)C(CCC(=O)O)NC(=O)c1ccccc1 (centres undefined) [Proglumide]", "group": "NO"}
{"compound": "COc1cnc(NS(=O)(=O)c2ccc(N)cc2)nc1", "group": "YES"}
{"compound": "COCCOC(=O)C1=C(C)NC(C)=C(C(=O)OC(C)C)C1c1cccc([N+](=O)[O-])c1 (centres undefined)", "group": "NO"}
{"compound": "CCCN[C@H]1CCc2nc(N)sc2C1 [Pramipexole dihydrochloride]", "group": "YES"}
